molecular target: mouse TGR5 receptor (Mus musculus); construct: expressed in transfected cells; host or cells: HEK293-EBNA (293 c18, ATCC CRL10852), Hygromycin B selection; experiment: Mouse TGR5 cAMP production assay (HTRF, Cisbio cAMP HiRange); assay type: cell-based; settings: HEK293-EBNA cells overexpressing mouse TGR5, HTRF cAMP HiRange; coded A-D
observable: EC50

Give EC50 for each listed item.
1. CCc1cnccc1-c1cccc(C2CN(C(=O)CCC(=O)O)CCN2S(=O)(=O)c2cccc(Cl)c2C)c1 (racemic)
2. Cc1cnccc1-c1cccc(C(C)(C)N(CCCC(=O)N[C@@H](CS(=O)(=O)O)C(=O)O)S(=O)(=O)c2cccc(Cl)c2C)c1 [Compound 21AA]
3. COc1cnccc1-c1cccc(C(C)(C)NS(=O)(=O)c2ccc(F)cc2C(F)(F)F)c1
4. Cc1cnccc1-c1cccc(C(C)(C)N(CCCC(=O)NC[C@@H](O)[C@H](O)[C@@H](O)[C@@H](O)CO)S(=O)(=O)c2cccc(Cl)c2C)c1 [Compound 20AF]
5. Cc1cnccc1-c1cccc(C2(NS(=O)(=O)c3cccc(Cl)c3C)COC2)c1
6. CC(=O)N1CCN(S(=O)(=O)c2ccccc2C(F)(F)F)C(c2cccc(-c3ccncc3C)c2)C1 (stereo not shown)
7. Cc1cnccc1-c1cccc(C(C)(C)N(CCCC(=O)NCC(N)=O)S(=O)(=O)c2cccc(Cl)c2C)c1 [Compound 21AC]
8. CCc1cnccc1-c1cccc(C2CN(CC(=O)O)CCN2S(=O)(=O)c2cccc(Cl)c2C)c1 (stereo not shown)

Response:
1: < 100 nM; 2: < 100 nM; 3: 100 to 999 nM; 4: < 100 nM; 5: < 100 nM; 6: < 100 nM; 7: < 100 nM; 8: 100 to 999 nM

Give EC50 for each listed item.
1. Cc1cnccc1-c1cccc([C@H](C)N(CCCCNC(=O)NCS(=O)(=O)O)S(=O)(=O)c2ccccc2C(F)(F)F)c1 [Compound 28AC]
2. Cc1c(Cl)cccc1S(=O)(=O)N(CCCC(=O)NCCS(=O)(=O)NCC(=O)O)[C@@H](C)c1cccc(-c2ccncc2CO)c1 [Compound 20BS]
3. CC[C@H](NS(=O)(=O)c1ccccc1C(F)(F)F)c1cccc(-c2ccncc2C)c1
4. COc1cnccc1-c1cccc(C(C)(C)NS(=O)(=O)c2ccccc2N)c1
5. Cc1cnccc1-c1cccc(C2CN(CCCC(=O)NCCS(=O)(=O)O)CCN2S(=O)(=O)c2cccc(Cl)c2C)c1 (stereo not shown) [Compound 53AA]
6. Cc1cnccc1-c1cccc(C(C)(C)N(CCCC(=O)NCCN)S(=O)(=O)c2cccc(Cl)c2C)c1
7. CC[C@H](NS(=O)(=O)c1ccccc1C(F)(F)F)c1cccc(-c2ccc3nccn3c2)c1

Response:
< 100 nM
< 100 nM
< 100 nM
100 to 999 nM
< 100 nM
100 to 999 nM
1000 to 30000 nM

----------
biological target: UniProt:Q8TDU6; experiment: Human TGR5 cAMP production assay; settings: human TGR5, luminescent cAMP assay; coded A-D; read-out: Human TGR5 Lum. cAMP Activity (EC50)
pEC50: −log10 of the molar value.
Could you please report measured pEC50 for the items listed next?

>>> reported_result("Cc1cnccc1-c1cccc(C(C)(C)N(CCCC(=O)NCCNC(=O)OC(C)(C)C)S(=O)(=O)c2cccc(Cl)c2C)c1 [Compound 20AV]")
"> 7.00"

Give pEC50 for each listed item.
1. Cc1cnccc1-c1cccc(C(C)(C)NS(=O)(=O)c2cccc(C(F)(F)F)c2)c1 [Compound 5AA]
2. Cc1cnccc1-c1cccc(CNS(=O)(=O)c2cccc(C(F)(F)F)c2)c1 [Compound 1BF]
3. Cc1cnccc1-c1cccc([C@H](C)N(CCCC(=O)NCCS(=O)(=O)NCC(=O)O)S(=O)(=O)c2ccccc2C)c1 [Compound 20AX]
4. Cc1cc(-c2cccc(C(C)(C)NS(=O)(=O)c3cccc(C(F)(F)F)c3)c2)ccn1 [Compound 1AK]
5. CCc1cnccc1-c1cccc(C2CN(CCCC(=O)O)CCN2S(=O)(=O)c2cccc(Cl)c2C)c1 (stereo not drawn) [Compound 52AA]
6. CCc1cnccc1-c1cccc(C2CN(C(=O)CCC(=O)NCCCS(=O)(=O)O)CCN2S(=O)(=O)c2cccc(Cl)c2C)c1 (stereo not drawn) [Compound 53AC]

Response:
1: > 7.00; 2: 6.00 to 7.00; 3: > 7.00; 4: 6.00 to 7.00; 5: > 7.00; 6: 6.00 to 7.00

Give pEC50 for each listed item.
1. Cc1cnccc1-c1cccc(C(NS(=O)(=O)c2ccccc2C(F)(F)F)C2CC2)c1 (racemic) [Compound 5AV]
2. CC[C@H](NS(=O)(=O)c1cccc(C(F)(F)F)c1)c1cccc(-c2ccncc2C)c1 [Compound 5AY]
3. CCc1cnccc1-c1cccc(C(C)(C)N(CCCC(=O)NCCS(=O)(=O)O)S(=O)(=O)c2cccc(Cl)c2C)c1 [Compound 20AC]

Response:
> 7.00
> 7.00
> 7.00

Give pEC50 for each listed item.
1. Cc1c(Cl)cccc1S(=O)(=O)N[C@@H](C)c1cccc(-c2ccnnc2)c1 [Compound 1BP]
2. Cc1cnccc1-c1cccc([C@H](C)N(CCOCC(=O)O)S(=O)(=O)c2cccc(Cl)c2C)c1 [Compound 16AM]
3. CCc1cnccc1-c1cccc(C2CN(C(=O)CP(=O)(O)O)CCN2S(=O)(=O)c2cccc(Cl)c2C)c1 (stereo not drawn) [Compound 50]
4. O=S(=O)(NCc1cc(Cl)cc(-c2ccncc2)c1)c1cccc(C(F)(F)F)c1 [Compound 1BV]
5. Cc1cnccc1-c1cccc([C@H](C)N(CCC(=O)NCCS(=O)(=O)O)S(=O)(=O)c2cccc(Cl)c2C)c1 [Compound 20BV]

Response:
1: 6.00 to 7.00; 2: 6.00 to 7.00; 3: 6.00 to 7.00; 4: 4.52 to 6.00; 5: 6.00 to 7.00

----------
assay: Portal vein versus systemic pharmacokinetics in hepatic portal vein cannulated rats; assay type: in vivo, rat; details: rat, portal vein plasma; Portal Vein bleed, portal vein cannulated male CD (SD) rats, 10 mg/kg oral; read-out: AUC (0-7 h)
observable: AUC(0-t) (ng·h/mL)
One number for each entry, in ng·h/mL.

Query: Look up AUC(0-t) for this molecule: CCc1cnccc1-c1cccc([C@H](C)N(CCCC(=O)NCCS(=O)(=O)NCC(=O)O)S(=O)(=O)c2ccccc2C(F)(F)F)c1 [Compound 20BG]
Response: 30.1

----------
molecular target: human TGR5 receptor (Homo sapiens); assay: Human TGR5 cAMP production assay; details: human TGR5, luminescent cAMP assay; coded A-D; read-out: Human TGR5 Lum. cAMP Activity (EC50)
Sequence (Q8TDU6 whole entry): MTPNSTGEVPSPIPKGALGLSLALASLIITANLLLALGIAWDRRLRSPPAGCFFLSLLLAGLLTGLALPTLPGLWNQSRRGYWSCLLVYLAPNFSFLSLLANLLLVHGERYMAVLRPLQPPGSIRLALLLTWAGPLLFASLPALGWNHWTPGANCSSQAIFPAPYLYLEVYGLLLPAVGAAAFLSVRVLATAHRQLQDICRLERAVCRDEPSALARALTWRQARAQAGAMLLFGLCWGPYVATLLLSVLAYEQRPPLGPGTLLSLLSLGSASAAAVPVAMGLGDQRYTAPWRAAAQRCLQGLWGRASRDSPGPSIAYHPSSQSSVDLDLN
pEC50: −log10 of the molar value.
observable: pEC50

Give pEC50 for each listed item.
1. CCc1cnccc1-c1cccc([C@H](C)N(CCCC(=O)NCCS(=O)(=O)O)S(=O)(=O)c2cccc(Cl)c2C)c1 [Compound 21AQ]
2. Cc1cnccc1-c1cccc(C(C)(C)N(CCCC(=O)NCS(=O)(=O)O)S(=O)(=O)c2ccccc2C(F)(F)F)c1 [Compound 20AB]
3. CCc1cnccc1-c1cc(OC)cc(C(C)(C)NS(=O)(=O)c2ccccc2C(F)(F)F)c1
4. COc1cnccc1-c1cccc(C(C)(C)NS(=O)(=O)c2ccc(Cl)cc2C(F)(F)F)c1
5. Cc1cnccc1-c1cccc(C(C)(C)N(CCCNC(=O)NCS(=O)(=O)O)S(=O)(=O)c2cccc(Cl)c2C)c1
6. Cc1cnccc1-c1cccc([C@H](C)N(CCCCNC(=O)NCCS(=O)(=O)O)S(=O)(=O)c2ccccc2C(F)(F)F)c1 [Compound 28AB]

Response:
["> 7.00", "> 7.00", "6.00 to 7.00", "> 7.00", "> 7.00", "> 7.00"]

----------
Could you please report measured pEC50 for the items listed next?
Target: mouse TGR5 receptor (Mus musculus, UniProt Q80SS6)
Construct: expressed in transfected cells; host or cells: HEK293-EBNA (293 c18, ATCC CRL10852), Hygromycin B selection
Sequence (Q80SS6 1-329): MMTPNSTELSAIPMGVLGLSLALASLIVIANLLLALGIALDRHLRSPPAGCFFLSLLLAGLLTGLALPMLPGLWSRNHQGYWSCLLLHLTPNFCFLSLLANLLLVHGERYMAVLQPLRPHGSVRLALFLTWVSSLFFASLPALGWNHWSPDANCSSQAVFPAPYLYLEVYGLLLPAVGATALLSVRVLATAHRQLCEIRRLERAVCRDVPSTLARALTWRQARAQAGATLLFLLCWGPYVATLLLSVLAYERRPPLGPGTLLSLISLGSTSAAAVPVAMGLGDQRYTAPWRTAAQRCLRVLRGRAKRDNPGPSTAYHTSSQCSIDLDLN
Assay: Mouse TGR5 cAMP production assay (HTRF, Cisbio cAMP HiRange)
Type: cell-based
Settings: HEK293-EBNA cells overexpressing mouse TGR5, HTRF cAMP HiRange; coded A-D
pEC50: −log10 of the molar value.

Sample answers from the record:
>>> reported_result("Cc1cnccc1-c1cccc([C@H](C)N(CCCC(=O)NCCNS(=O)(=O)NOC(C)(C)C)S(=O)(=O)c2cccc(Cl)c2C)c1 [Compound 37A]")
"> 7.00"
>>> reported_result("Cc1cnsc1-c1cccc([C@H](C)N(CCCC(=O)O)S(=O)(=O)c2cccc(Cl)c2C)c1 [Compound 16AJ]")
"4.52 to 6.00"
>>> reported_result("CCc1cnccc1-c1cccc(C(C)(C)NS(=O)(=O)c2ccccc2C(F)(F)F)c1")
"> 7.00"
>>> reported_result("Cc1c(Cl)cccc1S(=O)(=O)N[C@@H](C)c1cccc(-n2ccncc2=O)c1")
"4.52 to 6.00"
>>> reported_result("CCc1cnccc1-c1cccc([C@H](C)N(CCCC(=O)NCCS(=O)(=O)NCC(=O)O)S(=O)(=O)c2ccccc2C)c1 [Compound 20BU]")
"> 7.00"

Give pEC50 for each listed item.
1. Cc1cnccc1-c1cccc(C(C)(C)N(CCCC(=O)NCCCS(=O)(=O)O)S(=O)(=O)c2cccc(Cl)c2C)c1 [Compound 20AD]
2. Cc1cnccc1-c1cccc(C(C)(C)NS(=O)(=O)c2cccc(Cl)c2C)c1
3. COC(=O)C(NS(=O)(=O)c1cccc(C(F)(F)F)c1)c1cccc(-c2ccncc2OC)c1 (centres unmarked)
4. CC[C@H](NS(=O)(=O)c1ccccc1C(F)(F)F)c1cccc(-c2ccncc2OC)c1
5. CCc1cnccc1-c1cccc([C@H](C)N(CCCC(=O)NCCS(=O)(=O)NCC(=O)O)S(=O)(=O)c2ccccc2C(F)(F)F)c1 [Compound 20BG]
6. Cc1nccc(-c2cccc([C@H](C)N(CCCC(=O)O)S(=O)(=O)c3cccc(Cl)c3C)c2)c1C [Compound 14AG]
7. COc1cnccc1-c1cccc(CCNS(=O)(=O)c2ccccc2C(F)(F)F)c1
8. Cc1cnccc1-c1cccc(C(C)(C)N(CCCNS(=O)(=O)CCN2C(=O)c3ccccc3C2=O)S(=O)(=O)c2cccc(Cl)c2C)c1 [Compound 26A]

Response:
> 7.00
> 7.00
4.52 to 6.00
6.00 to 7.00
> 7.00
6.00 to 7.00
4.52 to 6.00
6.00 to 7.00

The values you see were collected from patent US11236055B2.
